target: hSERT (Homo sapiens (Human), UniProt P31645); assay: hSERT fluorometric transporter inhibition assay (APP+ uptake, hSERT-HEK); type: cell-based
quantity_kind: pIC50
// pIC50 is dimensionless: -log10 of concentration (M)

Problem: What does the record list as pIC50 for CCC1CC2CC3c4oc5ccc(O)cc5c4CCN(C2)C13 (stereo not shown) ?
Result: 6.05

###

Molecular target: rVMAT2 (Rattus norvegicus (Rat), UniProt Q01827)
Test: rVMAT2 fluorometric transporter inhibition assay (FFN206 uptake, rVMAT2-HEK)
Format: cell-based
Conditions: ± SEM; read-out: rVMAT2 (IC50)
Procedure: Inhibition assays of transporters (hSERT and rVMAT2) were performed according to the following protocol. Cell culture preparation and maintenance. […] hSERT and rVMAT2 fluorometric screening assays. […] A final solution of 120 μL of PBS is finally added to all corresponding wells for cell maintenance before undergoing fluorescence uptake reading by a BioTek H1MF plate reader. […] Data analysis. […] Respective inhibitor values were first subtracted from vehicular values to quantify the respective fluorescence uptake. […]
quantity_kind: IC50 (nM)
A number alone suffices; assume nM.

Problem: What does the record list as IC50 for CCC1CC2C[C@H]3c4oc5ccc(O)cc5c4CCN2C13 (stereo partly drawn) [(16R)-Oxa-noribogaine] ?
Result: 140

Problem: What about CCC1CC2C[C@@H]3c4oc5ccc(O)cc5c4CCN2C13 (stereo partly drawn) [(16S)-Oxa-noribogaine] ?
Result: 2800

###

target: UniProt:P34975; assay: rKOR agonist assay (cAMP), rKOR-CHO; assay type: cell-based
quantity_kind: EC50

Problem: What does the record list as EC50 for CCC1CC2CC3c4oc5ccc(O)cc5c4CCN(C2)C13 (stereo not shown) ?
Result: < 0.01 µM

###

target: rVMAT2 (Rattus norvegicus (Rat)); test: rVMAT2 fluorometric transporter inhibition assay (FFN206 uptake, rVMAT2-HEK); format: cell-based
quantity_kind: IC50 (nM)
A number alone suffices; assume nM.

Problem: What does the record list as IC50 for CCC1CC2CC3c4oc5ccc(O)cc5c4CCN(C2)C13 (stereo not shown) ?
Result: 670
